Test system: Calu-3
Method description: Cytotoxicity against human Calu-3 cells assessed as reduction in cell viability after 48 hrs by Cell-Tox green based fluorescence assay
Assay setup: calu-3, 48 h
CC50 for assorted compounds

CCC(CC)COC(=O)[C@@H](C)N[P@](=O)(OC[C@H]1O[C@@](C#N)(c2ccc3c(N)ncnn23)[C@H](O)[C@@H]1OC(=O)CCCCCCCCCCCN=[N+]=[N-])Oc1ccccc1 = > 50 µM
CCCCCCCCCCOCCC(=O)O[C@H]1[C@@H](O)[C@](C#N)(c2ccc3c(N)ncnn23)O[C@@H]1CO[P@@](=O)(N[C@H](C)C(=O)OCC(CC)CC)Oc1ccccc1 = 34.3 µM
CCCCCCCCCCCCCC(=O)O[C@H]1[C@@H](O)[C@](C#N)(c2ccc3c(N)ncnn23)O[C@@H]1CO[P@@](=O)(N[C@H](C)C(=O)OCC(CC)CC)Oc1ccccc1 = > 50 µM

Field: next compound
# get_value(readout='CC50', item= `CCCCCCCCCCCCCCCC(=O)O[C@H]1[C@@H](O)[C@](C#N)(c2ccc3c(N)ncnn23)O[C@@H]1CO[P@@](=O)(N[C@H](C)C(=O)OCC(CC)CC)Oc1ccccc1` )
> 50 µM
